molecular target: Human recombinant PDE2A (hPDE2A) (Homo sapiens); construct: His tag (inferred from metal chelate purification); made in house; host or cells: Sf9 insect cells (baculovirus); assay: In vitro assay PDE2A (SPA, 3H-cGMP hydrolysis); assay type: biochemical; details: read-out: hPDE2A pIC50 (converted)
Sequence (O00408 whole entry): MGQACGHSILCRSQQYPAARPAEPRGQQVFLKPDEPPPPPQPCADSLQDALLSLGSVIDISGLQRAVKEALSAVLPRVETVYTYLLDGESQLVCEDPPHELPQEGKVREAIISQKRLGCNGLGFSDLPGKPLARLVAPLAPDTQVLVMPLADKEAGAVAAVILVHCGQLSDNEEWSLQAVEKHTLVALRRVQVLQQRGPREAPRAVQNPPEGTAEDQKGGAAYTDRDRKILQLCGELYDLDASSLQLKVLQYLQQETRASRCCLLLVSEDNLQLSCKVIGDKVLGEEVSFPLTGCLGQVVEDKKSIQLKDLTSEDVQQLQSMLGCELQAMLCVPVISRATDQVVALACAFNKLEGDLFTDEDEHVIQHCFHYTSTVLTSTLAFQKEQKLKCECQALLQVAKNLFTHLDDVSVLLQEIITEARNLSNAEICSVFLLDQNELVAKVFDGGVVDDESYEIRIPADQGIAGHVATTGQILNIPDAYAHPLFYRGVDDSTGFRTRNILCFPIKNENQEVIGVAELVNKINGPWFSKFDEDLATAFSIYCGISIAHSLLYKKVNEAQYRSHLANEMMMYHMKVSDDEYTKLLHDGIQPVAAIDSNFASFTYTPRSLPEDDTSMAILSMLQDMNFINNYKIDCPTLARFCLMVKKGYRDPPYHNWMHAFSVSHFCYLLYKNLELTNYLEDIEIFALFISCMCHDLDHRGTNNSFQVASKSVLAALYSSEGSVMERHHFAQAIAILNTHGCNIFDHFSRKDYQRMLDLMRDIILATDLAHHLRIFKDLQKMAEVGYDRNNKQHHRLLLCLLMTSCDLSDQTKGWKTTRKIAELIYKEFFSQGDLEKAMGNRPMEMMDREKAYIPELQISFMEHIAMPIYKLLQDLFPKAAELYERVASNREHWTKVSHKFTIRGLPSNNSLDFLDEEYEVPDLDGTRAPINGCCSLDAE
Quantity Name: IC50 (nM)

O=C(c1ccc(F)c(F)c1)N1[C@H]2CC[C@H](c3cc(C(F)F)nc4ncnn34)[C@@H]1CC2 [Compound 337]
166
Cc1cc(C(=O)N2CC[C@@H](C)[C@H](c3cc(C(F)F)nc4ncnn34)C2)c(C)s1 [Compound 65]
1.26
C[C@@H]1CCN(C(=O)c2cnc(O)c(Cl)c2)C[C@H]1c1cc(C(F)F)nc2ncnn12 [Compound 173]
13.8
Cc1cnc(C(F)(F)F)cc1C(=O)N1CC[C@@H](C)[C@H](c2cc(C(F)F)nc3ncnn23)C1 [Compound 52]
13.8
